// provenance: PubChem BioAssay (NCI)

Test system: SNB-19 CNS
assay_remarks: NCI tumour cell line growth inhibition, 48 h; in the data active = GI50 below about 0.43 µM; inactive = the rest
*1 amine or outer side, *2 acyl side, *3 side chain or, on linkers, in order; H or OH if unused. Where a SMILES comes first, the peptide text is derived from it. Bridges are numbered along the chain shown (N, C = ends). [ ]: non-standard residue; d: D form. The star is where a group is joined. Phe(3-Me) = Cc1cccc(C[C@H](N)C(=O)O)c1; NH(4-Cl-2-F-phenyl) = Fc1cc(Cl)ccc1N*; Pro(4R-Me) = C[C@H]1CN[C@H](C(=O)O)C1; Propanoyl(3-NMe2) = CN(C)CCC(=O)*; Hyp = O=C(O)[C@@H]1C[C@@H](O)CN1; aThr = C[C@H](O)[C@H](N)C(=O)O; Pip = O=C(O)[C@@H]1CCCCN1; CO = O=C([*:1])[*:2]
Result category, one only: active, inactive

Q: Identify the outcome logged in this assay for the compound shown: "Nc1c(C(=O)Nc2ccccc2)sc2nc3c(cc12)CCCC3"
Result: inactive

Q: Give the logged outcome of this assay for the following compound: "C[C@@]1(N2C(=O)OC[C@@H]2c2ccccc2)C(=O)N([C@H](CC(=O)N2CCC(N3CCCCC3)CC2)C(=O)NCc2cccc(C(F)(F)F)c2)[C@@H]1/C=C/c1ccccc1"
Result: inactive

Q: Give the logged outcome of this assay for the following compound: "Cc1nn(-c2ccc(Br)cc2)c(C)c1CC(=O)c1cc(O)ccc1O"
Result: inactive

Q: Hi team, can someone confirm the assay call for Cc1cccc(C[C@H](NC(=O)Nc2ccc(Cl)cc2F)C(=O)N[C@@H]2C(=O)N3C[C@H](OC(=O)CCN(C)C)C[C@H]3C(=O)N3CCCC[C@H]3C(=O)N[C@@H](C)C(=O)N3C[C@H](C)C[C@H]3C(=O)O[C@H]2C)c1 ({NH(4-Cl-2-F-phenyl)-CO}-[Phe(3-Me)][aThr][Hyp](Propanoyl(3-NMe2))[Pip]A[Pro(4R-Me)]; ester 2-C) ?
Result: active

Q: Which outcome was assigned to "C=C(CN1CCN(c2cccc(F)c2)CC1)c1ccc(C(=O)Nc2ccccc2N)cc1" in this test?
Result: inactive

Q: Recorded test outcome, item "CC[C@@]1(O)C(=O)OCc2c1cc1n(c2=O)Cc2c-1nc1ccccc1c2/C=N/OC(C)(C)C"
Result: active

Q: What is the recorded call for this compound in the test? "C[n+]1ccc(-c2c3nc(c(-c4ccc5c(ccc[n+]5C)c4)c4ccc([nH]4)c(-c4cc[n+](C)cc4)c4nc(c(-c5ccc6c(ccc[n+]6C)c5)c5ccc2[nH]5)C=C4)C=C3)cc1"
Result: inactive

====

Test system: SN12C renal
assay_remarks: NCI tumour cell line growth inhibition, 48 h
Assignment: determine reported TGI for the given compounds.

Q: Provide SN12C renal TGI reading for "CN(C)/C=N/c1nc2ncn(CCOC(=O)c3ccccc3)c2c(=O)[nH]1" .
Result: > 100 µM

Q: Recall the reported TGI of "CN(C(=O)c1cccs1)C(=S)N1CCN(c2ccccc2)CC1" when tested on SN12C renal.
Result: > 100 µM

Q: # assay system SN12C renal: give TGI of "ClC[Si]12OCCN(CCO1)CCO2"
Result: > 100 µM

Q: Provide the reported TGI (system: SN12C renal) for "CC(C)CC(=O)NS(=O)(=O)c1ccccc1"
Result: > 100 µM

Q: Give TGI only, for "CC(=O)OCc1cn(S(=O)(=O)c2ccc(C)cc2)cn1" , using SN12C renal data.
Result: > 100 µM

Q: Write TGI of O=C(O)C(F)(OC(F)(F)C(F)(OC(F)(F)C(F)(F)C(F)(F)F)C(F)(F)F)C(F)(F)F (stereo not drawn) ; system used: SN12C renal
Result: > 100 µM

Q: State the measured TGI (SN12C renal) of "Cc1nc2c(ncn2CCO)c(=O)[nH]1"
Result: > 100 µM

Q: Determine reported TGI for "CC1=NN(C(=O)Cc2ccccc2)C(=O)/C1=C\c1ccco1" ; test system: SN12C renal.
Result: > 100 µM

Q: Send back SN12C renal TGI of "CCN(CC)c1nc(N(C)C)c2cc(OC)ccc2n1" only.
Result: 89.3 µM

Q: # assay system SN12C renal: give TGI of CCC(/C(=N\Nc1c(Cl)cc(Cl)cc1Cl)c1ccccc1)n1ccnc1C (stereo not drawn)
Result: 26.4 µM

Q: State TGI on SN12C renal. Entry: CN1CCCCC1CCN1c2ccccc2Sc2ccc(S(C)=O)cc21 (stereo not drawn)
Result: > 100 µM

Q: Provide TGI, recorded with SN12C renal, of "Cc1cccc(NC(=O)CC#N)c1Cl"
Result: > 100 µM

Q: // fetch TGI for "Cc1cc2[nH]c3c(C#N)c(-c4ccccc4)c(CN4CCOCC4)c(=O)n3c2cc1C" ; system: SN12C renal
Result: > 100 µM

Q: Please report TGI with SN12C renal for item "Cc1cc(N=Nc2ccc(N=Nc3c(O)c(S(=O)(=O)O)cc4cc(S(=O)(=O)O)ccc34)cc2C)ccc1N=Nc1ccc2cc(S(=O)(=O)O)cc(S(=O)(=O)O)c2c1" .
Result: > 100 µM

Q: Fetch value of TGI on SN12C renal for CC1(C)C2CCC1(CC(=O)O)C(Cl)C2 (stereo not drawn) .
Result: > 100 µM

Q: Retrieve TGI on SN12C renal; query "CP(C)(=S)P(C)(C)=S"
Result: > 100 µM

Q: Give the observed TGI of "CCOC(=O)NC(=O)c1cn(CCSCCOC(=O)NCCCCCCNC(=O)OCCSCCn2cc(C(=O)NC(=O)OCC)c(=O)[nH]c2=O)c(=O)[nH]c1=O" for SN12C renal.
Result: > 100 µM

Q: Find the measured TGI of "Cc1cc(C#N)c(Nc2c(C)cccc2[N+](=O)[O-])s1" with SN12C renal as test system.
Result: > 100 µM

Q: Param request: TGI | system SN12C renal | item "O=C(Nc1c(Cl)cc([N+](=O)[O-])cc1Cl)/C(=N\Nc1cccc(Cl)c1)c1c(O)c2ccccc2oc1=O"
Result: > 100 µM

Q: Give measured TGI for "CCN1CCN(C(=O)[C@]23CCC(C)(C)C[C@@H]2C2=CC[C@@H]4[C@@]5(C)C/C(=C/c6cccnc6)C(=O)C(C)(C)[C@@H]5CC[C@@]4(C)[C@]2(C)CC3)CC1" (SN12C renal).
Result: 2.54 µM

Q: # return TGI of "COC(=O)c1scc(N)c1-n1ccc(=O)[nH]c1=O" (system: SN12C renal)
Result: > 100 µM

Q: Write TGI of "COc1cc(/C=C(\C#N)c2ccccn2)cc(Br)c1O" ; system used: SN12C renal
Result: > 100 µM

Q: Fill in: TGI on SN12C renal, entry "O=c1cccc(C#CC#C/C=C/CO)o1"
Result: 4.19 µM

Q: Write down measured TGI (SN12C renal) for this compound. CC1Cc2cc(O)ccc2C2[C@@H]1C1CC[C@H](O)[C@@]1(C)C[C@@H]2O[N+](=O)[O-] (stereo partly drawn)
Result: > 94.4 µM

Q: Provide TGI, system SN12C renal, entry O=C1NN(c2ccccc2)C(=O)C2C3c4ccccc4C(c4ccccc43)C12 (stereo not drawn)
Result: > 100 µM

Q: // output TGI; input COC(Cc1ccccc1)NC(C)=O (stereo not drawn) ; system SN12C renal
Result: > 100 µM

Q: Lab note: SN12C renal assay, enter TGI for "Cc1cccc(NC(=S)N/N=C(/c2ccccc2)c2ccccn2)c1" here
Result: 12.4 µM

Q: // fetch TGI for CC1=C2C(O)C(C(C)C(=O)NC(C)C)CCC2(C)C=CC1=O (stereo not drawn) ; system: SN12C renal
Result: > 100 µM

Q: Provide measured TGI on SN12C renal for "Cc1ccc(C2=C(c3ccccc3)C(O)(c3ccc(C)cc3)C(c3ccccc3)=C2c2ccc(C)cc2)cc1" please.
Result: > 100 µM

Q: Find the measured TGI of "CCNc1ncnc2n[nH]nc12" with SN12C renal as test system.
Result: > 100 µM

Q: # assay system SN12C renal: give TGI of CCCCCC(/C=N/N)C(O)(C(F)(F)F)C(F)(F)F (stereo not drawn)
Result: > 10 µM

Q: Provide SN12C renal TGI reading for CC1=CC2C(C(C)C)CC1C1C(=O)OC(=O)C21 (stereo not drawn) .
Result: > 100 µM

Q: Provide the reported TGI (system: SN12C renal) for "COc1cc([C@@H]2c3cc4c(c(O)c3C[C@H]3COC(=O)[C@@H]32)OCO4)cc(OC)c1O"
Result: 0.431 µM

Q: Given "Nc1ccc(N)c2c1C(=O)c1c(N)ccc(N)c1C2=O" , report its TGI on SN12C renal.
Result: > 100 µM

Q: Find the measured TGI of "Cc1cc2c(cc1C)[n+](=O)c(C(=O)/C=C/c1ccccc1Cl)c(C)n2[O-]" with SN12C renal as test system.
Result: > 100 µM

Q: Using SN12C renal as the test system, report measured TGI of "O=C(/C=C/c1cccnc1)c1ccccc1O" .
Result: 81.9 µM

Q: Please look at "CC1=C(C(=O)Nc2ccccc2C)C(c2ccc(C3C(C(=O)Nc4ccccc4C)=CNC=C3C(=O)Nc3ccccc3C)cc2)C(C(=O)Nc2ccccc2C)=C(C)N1" and tell me its recorded TGI on SN12C renal.
Result: 21.9 µM

Q: Check SN12C renal data and give TGI for "Oc1cc2ccccc2cc1-c1n[nH]c(=S)n1-c1ccc(Cl)cc1" .
Result: 55.2 µM

Q: Tell me its TGI on SN12C renal: "CCc1ccc(Nc2cc(C)nc3nc(C)nn23)cc1"
Result: > 100 µM

Q: Find TGI for O=C1OC2C(O)C(=O)OC2C1O (stereo not drawn) on SN12C renal and write it down.
Result: > 100 µM

Q: Find the measured TGI of CC([O-])C(=O)[O-].NCC1CCC1CN.[Pt+4] (stereo not drawn) with SN12C renal as test system.
Result: > 10 µM

Q: System SN12C renal. Read-out TGI. Item CC(=O)OC1COC(Nn2c(=O)[nH]c3ccccc3c2=O)C(OC(C)=O)C1OC(C)=O (stereo not drawn) . Report value.
Result: > 100 µM

Q: Report TGI on SN12C renal for this entry: "COc1cc(OC)cc(-c2cncn2-c2ccc(-c3nc4cc(OC)c(OC)c(OC)c4s3)cc2)c1"
Result: > 100 µM
